Ref: patent US20210380703A1

Catalogue of optical density values
- Target Entity: T1, biotinylated goat anti-human kappa light chain
- T1 construct: positive control of the ELISA
- Test Method Notes: ELISA, positive control; further: test concentration or dose not given here

Binder	optical density
367_C12 (antibody, V domains shown, Group II) VH: EVQLLESGGGLVQPGGSLRLSCAASGFTFSSYGMHWVRQAPGKGLEWVSGINYNGGYTSYADSVKGRFTISRDNSKNTLYLQMNSLRAEDTAVYYCARAATWHDTHLDYWGQGTLVTVSS VL: DIQMTQSPSSLSASVGDRVTITCRASQSILSYVNWYQQKPGKAPKLLIYATTSRHSGVPSRFSGSGSGTDFTLTISSLQPEDFATYYCQQSYESPLTFGGGTKVEIK	3.58 OD
367_E10 (antibody, V domains shown, Group II) VH: EVQLLESGGGLVQPGGSLRLSCAASGFTFSSYGMHWVRQAPGKGLEWVSSINYNGGYTGYADSVKGRFTISRDNSKNTLYLQMNSLRAEDTAVYYCARAATWHDTHLDYWGQGTLVTVSS VL: DIQMTQSPSSLSASVGDRVTITCRASQSILSYVNWYQQKPGKAPKLLIYAATSRASGVPSRFSGSGSGTDFTLTISSLQPEDFATYYCQQSYELPLTFGGGTKVEIK	3.48 OD
368_H03 (antibody, V domains shown, Group II) VH: EVQLLESGGGLVQPGGSLRLSCAASGFTFDDYSMHWVRQAPGKGLEWVASINYNGGYTGYADSVKGRFTISRDNSKNTLYLQMNSLRAEDTAVYYCARAATWHDTHLDYWGQGTLVTVSS VL: DIQMTQSPSSLSASVGDRVTITCRASQSILSYVNWYQQKPGKAPKLVIYAVTSRHSGVPSRFSGSGSGTDFTLTISSLQPEDFATYYCQQSYSNPLTFGGGTKVEIK	3.56 OD
369_B03 (antibody, V domains shown, Group I) VH: EVQLLESGGGLVQPGGSLRLSCAASGFTFSSYGMHWVRQAPGKGLEWVAGINYNGGYTSYADSVKGRFTISRDNSKNTLYLQMNSLRAEDTAVYYCARAANWHDTALDYWGQGTLVTVSS VL: DIQMTQSPSSLSASVGDRVTITCRASQSILTYVNWYQQKPGKAPKLVIYAATSLASGVPSRFSGSGSGTDFTLTISSLQPEDFATYYCQQSYELPLTFGGGTKVEIK	3.52 OD
